target: human FASN (Homo sapiens, UniProt P49327); construct: was purified from SKBR3 cells using procedures modified from those in Jayakumar et al; endogenous in cells; host or cells: SKBR3 human breast cancer cells (ATCC); Endogenous enzyme purified by ammonium sulfate precipitation and a mono Q column; experiment: FASN NADPH Consumption Assay; type: biochemical; conditions: human FASN purified from SKBR3 cells; starred symbols
Sequence (P49327 whole entry): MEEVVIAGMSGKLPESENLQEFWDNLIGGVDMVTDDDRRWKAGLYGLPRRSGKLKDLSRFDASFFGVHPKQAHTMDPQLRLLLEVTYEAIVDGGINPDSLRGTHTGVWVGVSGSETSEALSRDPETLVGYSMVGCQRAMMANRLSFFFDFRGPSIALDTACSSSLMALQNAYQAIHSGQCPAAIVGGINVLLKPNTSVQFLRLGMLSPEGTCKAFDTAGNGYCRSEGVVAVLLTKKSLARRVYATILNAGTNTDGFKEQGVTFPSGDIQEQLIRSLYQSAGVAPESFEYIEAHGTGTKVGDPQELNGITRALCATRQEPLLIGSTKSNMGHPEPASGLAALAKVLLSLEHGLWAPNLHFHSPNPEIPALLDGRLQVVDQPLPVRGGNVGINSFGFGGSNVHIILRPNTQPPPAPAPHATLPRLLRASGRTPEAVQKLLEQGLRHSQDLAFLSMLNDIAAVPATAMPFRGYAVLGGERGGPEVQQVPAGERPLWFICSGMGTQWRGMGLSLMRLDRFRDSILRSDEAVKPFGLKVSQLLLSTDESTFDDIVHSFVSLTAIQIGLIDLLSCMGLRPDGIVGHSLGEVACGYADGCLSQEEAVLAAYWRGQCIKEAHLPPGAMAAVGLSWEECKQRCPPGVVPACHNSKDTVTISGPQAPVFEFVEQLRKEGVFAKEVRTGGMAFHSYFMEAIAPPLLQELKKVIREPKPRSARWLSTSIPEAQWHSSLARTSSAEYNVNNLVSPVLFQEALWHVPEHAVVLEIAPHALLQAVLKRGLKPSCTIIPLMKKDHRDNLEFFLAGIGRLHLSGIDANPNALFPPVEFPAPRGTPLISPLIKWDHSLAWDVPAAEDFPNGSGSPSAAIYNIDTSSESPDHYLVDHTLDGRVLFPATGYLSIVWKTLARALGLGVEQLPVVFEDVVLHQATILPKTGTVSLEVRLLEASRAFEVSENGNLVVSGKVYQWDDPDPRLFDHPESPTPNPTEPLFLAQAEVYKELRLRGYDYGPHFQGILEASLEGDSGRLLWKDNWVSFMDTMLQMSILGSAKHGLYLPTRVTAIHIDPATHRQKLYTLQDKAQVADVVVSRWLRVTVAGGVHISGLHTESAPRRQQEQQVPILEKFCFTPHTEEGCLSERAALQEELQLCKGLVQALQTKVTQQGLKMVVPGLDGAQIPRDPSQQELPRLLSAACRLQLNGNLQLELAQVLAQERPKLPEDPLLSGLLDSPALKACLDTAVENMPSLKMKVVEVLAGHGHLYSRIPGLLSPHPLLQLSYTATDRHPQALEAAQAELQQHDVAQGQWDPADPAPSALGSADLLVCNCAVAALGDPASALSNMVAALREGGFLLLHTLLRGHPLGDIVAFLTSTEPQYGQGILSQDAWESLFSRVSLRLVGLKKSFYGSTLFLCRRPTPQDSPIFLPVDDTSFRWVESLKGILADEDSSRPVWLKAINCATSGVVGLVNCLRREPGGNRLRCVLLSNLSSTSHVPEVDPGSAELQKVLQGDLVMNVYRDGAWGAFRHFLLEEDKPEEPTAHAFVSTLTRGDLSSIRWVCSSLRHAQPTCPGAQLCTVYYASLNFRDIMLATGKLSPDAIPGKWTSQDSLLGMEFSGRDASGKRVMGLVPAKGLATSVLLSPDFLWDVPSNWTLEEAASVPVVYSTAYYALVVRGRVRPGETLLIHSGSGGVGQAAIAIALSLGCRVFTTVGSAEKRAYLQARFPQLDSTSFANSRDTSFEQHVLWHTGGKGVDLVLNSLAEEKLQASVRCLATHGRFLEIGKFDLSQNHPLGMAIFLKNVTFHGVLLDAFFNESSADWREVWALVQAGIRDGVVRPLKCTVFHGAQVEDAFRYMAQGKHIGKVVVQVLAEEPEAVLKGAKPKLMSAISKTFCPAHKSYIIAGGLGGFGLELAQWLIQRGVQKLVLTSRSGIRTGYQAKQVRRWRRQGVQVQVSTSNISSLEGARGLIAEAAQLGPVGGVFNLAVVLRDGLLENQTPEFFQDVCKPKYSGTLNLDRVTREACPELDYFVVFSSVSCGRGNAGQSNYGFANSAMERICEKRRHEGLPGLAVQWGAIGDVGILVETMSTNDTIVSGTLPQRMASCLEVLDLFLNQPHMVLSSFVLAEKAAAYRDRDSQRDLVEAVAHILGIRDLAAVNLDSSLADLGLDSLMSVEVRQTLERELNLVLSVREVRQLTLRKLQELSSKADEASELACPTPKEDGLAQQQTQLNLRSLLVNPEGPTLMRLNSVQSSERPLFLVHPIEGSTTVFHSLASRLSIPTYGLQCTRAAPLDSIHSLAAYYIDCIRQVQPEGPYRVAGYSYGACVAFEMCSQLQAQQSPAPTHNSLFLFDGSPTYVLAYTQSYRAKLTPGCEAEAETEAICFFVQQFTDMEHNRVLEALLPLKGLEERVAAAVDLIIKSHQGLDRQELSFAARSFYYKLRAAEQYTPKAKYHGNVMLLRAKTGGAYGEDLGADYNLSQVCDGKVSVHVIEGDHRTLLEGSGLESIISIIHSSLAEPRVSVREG
Examples of molecules with documented IC50 follow.

CC(C)C[C@@H](NC=O)C(=O)NCCCN(C(=O)n1nnn(-c2c(Cl)cccc2Cl)c1=O)C1CCCCC1; > 10000 nM

Moving on to the next molecule.
Give the measured IC50 for `CN(C(=O)n1nnn(-c2c(F)cccc2F)c1=O)c1ccccc1` 60 to 250 nM
